From: patent US5340833A

# study.system: human two-chain tPA (Homo sapiens)
# Construct: human two-chain tPA was substituted for urokinase; purchased American Diagnostica
# Sequence (P00750 311-562 limits assumed): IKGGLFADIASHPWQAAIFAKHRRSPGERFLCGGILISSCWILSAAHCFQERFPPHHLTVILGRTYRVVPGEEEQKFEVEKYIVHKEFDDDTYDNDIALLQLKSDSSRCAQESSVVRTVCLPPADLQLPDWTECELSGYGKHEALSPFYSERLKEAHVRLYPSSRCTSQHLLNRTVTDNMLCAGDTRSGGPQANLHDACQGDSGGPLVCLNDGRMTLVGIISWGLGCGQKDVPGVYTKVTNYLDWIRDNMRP
# Sequence (P00750 36-310 limits assumed): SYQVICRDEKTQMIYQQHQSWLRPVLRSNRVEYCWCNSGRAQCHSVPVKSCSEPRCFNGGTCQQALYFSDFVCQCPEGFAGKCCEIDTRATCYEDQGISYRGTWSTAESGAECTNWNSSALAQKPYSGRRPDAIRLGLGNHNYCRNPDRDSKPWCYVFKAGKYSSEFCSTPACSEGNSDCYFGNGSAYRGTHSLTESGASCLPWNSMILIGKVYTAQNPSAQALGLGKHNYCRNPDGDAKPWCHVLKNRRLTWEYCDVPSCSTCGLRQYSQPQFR
# assay.remarks: tPA Indirect (Plasminogen-Linked) Assay (tPA Direct Assay result where lower)
# Format: biochemical
# run.parameters: tPA Indirect Plasminogen-Linked Assay; in rare cases direct assay result if lower; read-out: tPA IC50
Structures can show the parent of a compound that is named as a salt.
Reported pIC50 values for the following compounds.
Just so you know, pIC50 here is -log10 of the concentration in molar units; reply with that number alone.

[
  {
    "compound": "N=C(N)c1cc2c(/C=C/c3cccc4sc(C(=N)N)cc34)cccc2s1 [Compound 73, bis-hydrochloride]",
    "study.system": "human two-chain tPA (Homo sapiens)",
    "pIC50": 5.57
  },
  {
    "compound": "CC(C)CCc1cccc2sc(C(=N)N)cc12.Cl [Compound 12, hydrochloride]",
    "study.system": "human two-chain tPA (Homo sapiens)",
    "pIC50": 4.02
  }
]

## Task pIC50 lookup needed for COc1ccc2sc(C(=N)N)cc2c1Br.Cl [Compound 204, hydrochloride] , thanks.
## Result 3.37
